- tested-target: Melanocyte-stimulating hormone receptor (Homo sapiens)
- experiment-notes: Activity against human MC1BR by cAMP accumulation
pEC50: −log10 of the molar value.
outcome-measure: pEC50

P: CN1CCN(CC2(C3CCCCC3)CCN(C(=O)[C@@H](Cc3ccc(Cl)cc3)NC(=O)[C@H]3Cc4ccccc4CN3)CC2)C1=O
Q: O=C(N[C@H](Cc1ccc(Cl)cc1)C(=O)N1CCC(CN2C(=O)OCC23CCC3)(C2CCCCC2)CC1)[C@H]1Cc2ccccc2CN1
Decide: P or Q , by lowest recorded pEC50. When you have decided, please share the label of that item.
Q
(Q: 5.77, P: 6.02)

====

- tested-target: Melanocortin receptor 5 (Homo sapiens, UniProt P33032)
- Sequence (P33032 whole entry): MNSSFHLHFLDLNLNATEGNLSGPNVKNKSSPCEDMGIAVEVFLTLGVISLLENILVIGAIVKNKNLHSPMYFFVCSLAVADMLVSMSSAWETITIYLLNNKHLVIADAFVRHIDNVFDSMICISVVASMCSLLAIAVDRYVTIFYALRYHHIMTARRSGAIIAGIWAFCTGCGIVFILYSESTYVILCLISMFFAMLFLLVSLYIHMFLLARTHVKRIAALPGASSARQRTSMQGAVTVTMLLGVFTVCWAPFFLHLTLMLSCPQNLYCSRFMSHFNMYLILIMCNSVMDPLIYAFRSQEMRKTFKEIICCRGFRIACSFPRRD
- experiment-notes: Activity against human MC5R by percentage of cAMP accumulation at 10 uM
- Format: functional
outcome-measure: %max (%)

O=C(N[C@H](Cc1ccc(Cl)cc1)C(=O)N1CCC(CN2CCCS2(=O)=O)(C2CCCCC2)CC1)[C@H]1Cc2ccccc2CN1 :: 41
C[C@@H]1COC(=O)N1CC1(C2CCCCC2)CCN(C(=O)[C@@H](Cc2ccc(Cl)cc2)NC(=O)[C@H]2Cc3ccccc3CN2)CC1 :: 51
CCOC(=O)N(CC1(C2CCCCC2)CCN(C(=O)[C@@H](Cc2ccc(Cl)cc2)NC(=O)[C@H]2Cc3ccccc3CN2)CC1)C(C)C :: 51
CC1(C)CCN(CC2(C3CCCCC3)CCN(C(=O)[C@@H](Cc3ccc(Cl)cc3)NC(=O)[C@H]3Cc4ccccc4CN3)CC2)S1(=O)=O :: 39

====

- tested-target: Melanocyte-stimulating hormone receptor (Homo sapiens, UniProt Q01726)
- Sequence (Q01726 whole entry): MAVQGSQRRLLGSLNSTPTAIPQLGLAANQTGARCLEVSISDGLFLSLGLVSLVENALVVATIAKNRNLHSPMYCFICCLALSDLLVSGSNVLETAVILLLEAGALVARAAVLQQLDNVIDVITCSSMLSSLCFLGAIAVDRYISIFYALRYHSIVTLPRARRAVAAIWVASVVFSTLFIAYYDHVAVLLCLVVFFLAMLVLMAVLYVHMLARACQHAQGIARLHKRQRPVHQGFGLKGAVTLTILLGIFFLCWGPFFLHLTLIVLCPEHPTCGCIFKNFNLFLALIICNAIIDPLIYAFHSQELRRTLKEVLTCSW
- experiment-notes: Displacement of [125I]NDP-alpha-MSH from human MC1BR expressed in CHO cells
pIC50: −log10 of the molar value.
outcome-measure: pIC50

Would you please look over these solved cases?
O=C(N[C@H](Cc1ccc(Cl)cc1)C(=O)N1CCC(CN2CCOC2=O)(C2CCCCC2)CC1)[C@H]1Cc2ccccc2CN1 :: 5.70
CN1CCN(CC2(C3CCCCC3)CCN(C(=O)[C@@H](Cc3ccc(Cl)cc3)NC(=O)[C@H]3Cc4ccccc4CN3)CC2)C1=O :: 5.74
CC(C)N(CC1(C2CCCCC2)CCN(C(=O)[C@@H](Cc2ccc(Cl)cc2)NC(=O)[C@H]2Cc3ccccc3CN2)CC1)S(C)(=O)=O :: 5.89

I: O=C(N[C@H](Cc1ccc(Cl)cc1)C(=O)N1CCC(CN2C(=O)OCC23CC3)(C2CCCCC2)CC1)[C@H]1Cc2ccccc2CN1
II: O=C(N[C@H](Cc1ccc(Cl)cc1)C(=O)N1CCC(CN2CCCS2(=O)=O)(C2CCCCC2)CC1)[C@H]1Cc2ccccc2CN1
Decide: I or II , by lowest recorded pIC50. When you have decided, please share the label of that item.
I
